assay: in vivo; conditions: Balb/c, mouse, po, 10 mg/kg
property-label: Cmax (ng/mL)
Express your answer in ng/mL, writing the number without its unit.

These solved cases illustrate the format of a correct answer.
Cc1nc(C)n(CC(=O)N2CCN(c3sc(C(F)(F)F)nc3-c3nc4c(F)cccc4[nH]3)C[C@H]2C)n1: 7010
Cc1nc(C)n(CC(=O)N2CCN(c3sc(C(F)(F)F)nc3-c3nc4ccccc4[nH]3)C[C@H]2C)n1: 5090
C[C@@H]1CN(c2sc(C(F)(F)F)nc2-c2nc3cc(OCCO)ccc3[nH]2)CCN1C(=O)Cn1cnc2cccnc21: 1760
C[C@@H]1CN(c2sc(C(F)(F)F)nc2-c2nc3ccccc3[nH]2)CCN1C(=O)Cn1cccn1: 670
C[C@@H]1CN(c2sc(C(F)(F)F)nc2-c2nc3ccccc3[nH]2)CCN1C(=O)Cn1cnc2cccnc21: 27900
Cc1nc(C)n(CC(=O)N2CCN(c3sc(C(F)(F)F)nc3-c3nc4ccc(-c5noc(C)n5)cc4[nH]3)C[C@H]2C)n1: 3140

I am curious: what Cmax value has been reported for Cc1nc(C)n(CC(=O)N2CCN(c3sc(C(F)(F)F)nc3-c3nc4ccc(C5CCOCC5)cc4[nH]3)C[C@H]2C)n1 ?
1980
